experimental_target: T1, monkey GFRα3 expressed with a C-terminal myc-myc-hexahistidine tag (monkey (Mf), UniProt O60609 32-374 (human entry), limits assumed)
T1 construct: also called MfGFRα3-mmh; MfGFRα3-mmH
T1 chain: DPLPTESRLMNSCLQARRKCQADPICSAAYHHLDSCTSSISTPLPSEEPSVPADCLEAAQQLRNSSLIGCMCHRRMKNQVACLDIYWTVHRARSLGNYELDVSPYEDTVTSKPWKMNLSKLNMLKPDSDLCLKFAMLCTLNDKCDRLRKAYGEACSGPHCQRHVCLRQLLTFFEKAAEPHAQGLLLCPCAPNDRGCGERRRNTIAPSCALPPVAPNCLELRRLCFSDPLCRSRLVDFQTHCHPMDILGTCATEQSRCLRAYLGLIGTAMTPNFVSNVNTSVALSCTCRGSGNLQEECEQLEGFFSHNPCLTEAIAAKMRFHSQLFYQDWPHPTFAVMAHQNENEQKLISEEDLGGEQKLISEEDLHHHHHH
assay_notes: SPR, Ab captured, 25C
Decide using kon alone. Strictly below 200000 M⁻¹ s⁻¹: criterion met. Equal to or above 200000 M⁻¹ s⁻¹: criterion not met.

Below 200000 M⁻¹ s⁻¹ on kon? Entry H1M2243N (antibody, V domains shown, chimeric, human variable and mouse constant domains (H1M)) VH: QVQLVQSGAEVKKPGASVKVSCKASGYTFTSYGIIWVRQAPGQGLEWMGWISGYNGNTNYTQNLQGRVTMTTDTSTTTAYMELRSLRSDDTAVYYCARWGIATRPYYYYGMDVWGQGTTVTVSS VL: DIQMTQSPSSLSASVGDRVTITCRASQDITNYLAWFQQKPGKAPKSLIYAASSLQSGVPSKFSGSGSGTDFTLTISSLQPEDFATYYCQQYNSYPPTFGPGTKVDIK
criterion met

Next entry: H4H2344S (antibody, human IgG4, V domains shown, human IgG4 Fc (H4H)) VH: EVQLVESGGGVVQPGRSLRLSCAASGFSFSDYVMHWVRQAPGKGLEWVASIWFDGSNEFYADSVKGRFTISRDNSKNTLFLQMNSLRAEDTAVYYCAKKGVLVATSAFDIWGQGTMVTVSS VL: DIQMTQSPSSLSASVGDRVTITCRASQSINNYLNWYHQKPGKAPKLLIYAASSLQSGVPSRFSGSGSGTDYTLTISSLQPEDFGNYYCQQSYRTSMYTFGQGTKVEIK
criterion met

Next entry: H4H2291S (antibody, human IgG4, V domains shown, human IgG4 Fc (H4H)) VH: EVQLVESGGGLVQPGESLRLSCAASGFTFSNYAMSWVRQAPGKGLEWVSVISGSGGSTYYADSVKGRFTMSRDNSKNTLYLQMNSLRAEDTAVYYCAKPPSRAARYFNYGMDVWGQGTTVTVSS VL: AIRMTQSPSSVSASVGDRVTITCRASQGISSWLAWYQQKPGKAPKLLIYAASSLQSGVPSRFSGSGSGTDFTLTISSLQPEDFATYYCQQANSFPFTFGGGTKVEIK
criterion met

Next entry: H4H2364S (antibody, human IgG4, V domains shown, human IgG4 Fc (H4H)) VH: EVQLVESGGGLEQPGGSLRLSCAASGFTFSSYVMSWVRQVPGKGLEWVSVISGSGGSTYYADSVKGRFTISRDNSKNTLYLQMNSLRAEDTAVYYCAKPSSYSSSNFHYGMDVWGQGTTVTVSS VL: DIQMTQSPYSVSASVGDRVTITCRASQGISSWLAWYQQKPGRAPKLLIYAASSLQSGVPSRFSGSGSGTDFTLTISSLQPEDFATYYCQKTNSFPFTFGPGTKVEIK
criterion met

Next entry: H1M2236N (antibody, V domains shown, chimeric, human variable and mouse constant domains (H1M)) VH: EVQLLESGGNLVQPGGSLRLSCAASGFTFSSYAMTWVRQAPGKGLEWVSTISGSGTSTYYADSVKGRFTISRDNSRDTVFLQMNSLRAEDTAVYYCSKPSALRFLHWLCMDVWGQGTLVTVSS VL: DIQMTQSPSSLSAFVGDRVTITCRASQDIRNYLDWFQQKPGKAPKSLIYAASNLQSGVPSRFGGSGSGTDFTLTINSLQPEDFVTYYCQQYNSYPPTFGGGTKVEIK
criterion not met

Next entry: H4H2292S (antibody, human IgG4, V domains shown, human IgG4 Fc (H4H)) VH: EVQLVESGGGVVQPGRSLRLSCAASGFTFSSYGMHWVRQAPGKGLEWVSFIWYDGSNKYYADSVKGRFTISRDNSKNTLYLQMNSLTAEDTAVYYCARRGILTGTTAFDIWGQGTMVTVSS VL: DIQMTQSPSSLSASVGDRVTITCRASQSISSYLNWYQQKPGKAPKLLIYAASSLQSGVPSRFSGSGSGTDFTLTIRSLIPEDFATYYCQQTYNTPFTFGPGTKVEIK
criterion met

Next entry: H4H2352S (antibody, human IgG4, V domains shown, human IgG4 Fc (H4H); also called H4H2352S-1) VH: EVQLVQSGAEVKKPGASVKVSCKASGYTFTNYGITWVRQAPGQGLEWMGWISAYNGNTGYAQKFQGRVTMTTDTSTSTAYMELRSLRSDDTAVYYCAREDYDFWRAFDIWGQGTMVTVSS VL: EIVLTQSPGTLSLSPGERATLSCRASQSVSSTYLAWLQQKPGQAPRLLIYGASSRATGIPDRFSGSGSGTDFTLTINRLEPEDFAVYYCQQYAYSPYTFGQGTKLEIK
criterion not met
